# Test system: HL60 cells
# assayNotes: AsedaSciences SYSTEMETRIC Cell Health Screen (multiparametric acute cell stress assay, flow cytometry, ML classifier)
# statedConditions: probability (0 to 1) of assignment to the 'yes' high cell stress class; HL60, 4 hours, 5 nM-100 μM
measuredEndpoint: CHI score (Cell Health Index)

molecule: C[CH2][Hg][S]c1ccccc1C(=O)[O-].[Na+]
testedOn: HL60 cells
dataValue: 0.936
//
molecule: O=C([O-])c1c(Cl)c(Cl)c(Cl)c(Cl)c1-c1c2cc(Br)c(=O)c(Br)c-2oc2c(Br)c([O-])c(Br)cc12.[Na+].[Na+]
testedOn: HL60 cells
dataValue: 0.637
//
molecule: CC(=O)[O-].[Hg+][c]1ccccc1 [Phenylmercuric acetate]
testedOn: HL60 cells
dataValue: 0.955
//
molecule: Cc1cc(O)cc(C)c1Cl
testedOn: HL60 cells
dataValue: 0.349

* * *

# Test system: biomolecular targets known to be associated with common negative side effects of pharmaceuticals in humans
# assayNotes: In vitro secondary pharmacology panels, all targets of the two panels (31 dose-response + 78 single concentration)
# Assay type: biochemical
# statedConditions: percentage of targets hit among all targets tested in the two secondary pharmacology panels
# Method: The purpose of this study was to assess the toxicity risk estimation provided by the Cell Health Screen relative to information from panels of in vitro pharmacology assays that were also designed to detect toxicity risk during pharmaceutical development. This study was performed with outside collaborators who have expertise in the use of the in vitro pharmacology assays. […] This is a quantitative toxicity risk estimation relative to a training set of compounds used to train the ML classifier. […]
The threshold is inclusive: Overall target hit rate of exactly 20% counts as Criterion met; values below receive Criterion not met.

molecule: CN(C)c1ccc2nc3ccc(=[N+](C)C)cc-3sc2c1 [Methylene blue hydrate]
group: Criterion met

molecule: CC(=O)[O-].[Hg+][c]1ccccc1 [Phenylmercuric acetate]
group: Criterion met

molecule: C[CH2][Hg][S]c1ccccc1C(=O)[O-].[Na+]
group: Criterion not met

molecule: CCCOC(=O)c1cc(O)c(O)c(O)c1 [Propyl gallate]
group: Criterion not met

molecule: O=C1OC2(c3ccccc31)c1cc(I)c(O)c(I)c1Oc1c2cc(I)c(O)c1I
group: Criterion met

molecule: CCCOC(=O)c1ccc(O)cc1
group: Criterion not met

molecule: CC(C)(C)CC(C)(C)c1ccc(OCCOCC[N+](C)(C)Cc2ccccc2)cc1 [Benzethonium chloride]
group: Criterion met

molecule: Cc1cc(O)cc(C)c1Cl
group: Criterion not met

molecule: O=C([O-])c1c(Cl)c(Cl)c(Cl)c(Cl)c1-c1c2cc(Br)c(=O)c(Br)c-2oc2c(Br)c([O-])c(Br)cc12.[Na+].[Na+]
group: Criterion met
